# system: T1, human TGFβ1 (human, UniProt P01137 279-390)
# T1 construct: also called TGFβ1 homodimer
# T1 sequence (P01137 279-390 limits assumed): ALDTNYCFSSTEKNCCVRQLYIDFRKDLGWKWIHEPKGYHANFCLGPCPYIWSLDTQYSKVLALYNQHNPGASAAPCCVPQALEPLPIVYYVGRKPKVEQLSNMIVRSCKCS
# test: Biacore off-rate vs wt GC1008, 50 nM
# Experimental: Plasmids encoding either the GC1008 heavy chain or light chain were used as a template in PCR-based mutagenesis reactions. […] Purified variant antibody samples were analyzed in duplicate on a Biacore® 3000 (GE Healthcare) at 50 nM concentrations, using the 100 RU level TGFβ1, 2, and 3 immobilized surfaces. […]
valueKind: kd var/kd wt
# respond with the number and nothing more

S30L (antibody, V domains shown, GC1008 IgG4 variant) VH: QVQLVQSGAEVKKPGSSVKVSCKASGYTFLSNVISWVRQAPGQGLEWMGGVIPIVDIANYAQRFKGRVTITADESTSTTYMELSSLRSEDTAVYYCASTLGLVLDAMDYWGQGTLVTVSS VL: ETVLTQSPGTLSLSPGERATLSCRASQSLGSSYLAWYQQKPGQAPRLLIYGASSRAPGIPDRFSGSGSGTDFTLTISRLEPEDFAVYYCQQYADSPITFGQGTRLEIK	1
D56T (antibody, V domains shown, GC1008 IgG4 variant) VH: QVQLVQSGAEVKKPGSSVKVSCKASGYTFSSNVISWVRQAPGQGLEWMGGVIPIVTIANYAQRFKGRVTITADESTSTTYMELSSLRSEDTAVYYCASTLGLVLDAMDYWGQGTLVTVSS VL: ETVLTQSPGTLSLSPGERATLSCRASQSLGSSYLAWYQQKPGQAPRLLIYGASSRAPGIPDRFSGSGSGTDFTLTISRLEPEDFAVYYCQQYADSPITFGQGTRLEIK	1.3
D56I (antibody, V domains shown, GC1008 IgG4 variant) VH: QVQLVQSGAEVKKPGSSVKVSCKASGYTFSSNVISWVRQAPGQGLEWMGGVIPIVIIANYAQRFKGRVTITADESTSTTYMELSSLRSEDTAVYYCASTLGLVLDAMDYWGQGTLVTVSS VL: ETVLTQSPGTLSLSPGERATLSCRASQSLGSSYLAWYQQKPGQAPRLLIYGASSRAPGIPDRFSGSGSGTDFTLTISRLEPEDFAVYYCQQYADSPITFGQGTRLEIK	1.6
S31H (antibody, V domains shown, GC1008 IgG4 variant) VH: QVQLVQSGAEVKKPGSSVKVSCKASGYTFSHNVISWVRQAPGQGLEWMGGVIPIVDIANYAQRFKGRVTITADESTSTTYMELSSLRSEDTAVYYCASTLGLVLDAMDYWGQGTLVTVSS VL: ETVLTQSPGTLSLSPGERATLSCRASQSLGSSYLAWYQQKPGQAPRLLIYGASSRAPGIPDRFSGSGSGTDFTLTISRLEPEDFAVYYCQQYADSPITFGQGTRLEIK	1.5

Shifting focus to the binder that follows.
Query string: Recorded kd var/kd wt for N32M (antibody, V domains shown, GC1008 IgG4 variant) VH: QVQLVQSGAEVKKPGSSVKVSCKASGYTFSSMVISWVRQAPGQGLEWMGGVIPIVDIANYAQRFKGRVTITADESTSTTYMELSSLRSEDTAVYYCASTLGLVLDAMDYWGQGTLVTVSS VL: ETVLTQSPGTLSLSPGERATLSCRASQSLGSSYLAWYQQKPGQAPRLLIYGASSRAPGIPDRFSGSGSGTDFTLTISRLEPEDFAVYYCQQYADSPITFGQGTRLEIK , please?
Result string: 1.3

// data source = patent US20170342144A1
